tested on: Acinetobacter baumannii ATCC17961; assay: Antimicrobial susceptibility testing: 90% growth inhibitory concentration (IC90) determination, Iso-Sensitest broth; assay type: cell-based; settings: Acinetobacter baumannii, ATCC17961, 90% growth inhibitory concentration, Acinetobacter baumannii ATCC17961, Iso-Sensitest broth; read-out: ATCC 17961 IC90
Where a name gives a salt, the structure may show the parent alone.
ENDPOINT: IC90 (nM)

Look over these answered cases.
Cn1c(-c2ccc(OCC#N)c(F)c2F)cnc1C(=O)Nc1ccc(C(=O)N2CCN(C(=O)C3CNCC(O)C3)CC2)c(Cl)c1 (stereo not drawn) [Example 214, trifluoroacetate] : 70
COc1ccc(-c2cnc(C(=O)Nc3ccc(C(=O)N4CCN(C(=O)CC5(O)CNC5)CC4)c(Cl)c3)n2C)c(F)c1F [Example 177, formate] : 50
COc1ccc(-c2cnc(C(=O)Nc3ccc(C(=O)N4CCN(C(=O)CCOCCN)CC4)c(Cl)c3)n2C)c(F)c1F [Example 246, formate] : 100
Cn1c(-c2ccc(OCC#N)c(F)c2Cl)cnc1C(=O)Nc1ccc(C(=O)N2CCN(C(=O)C3CCNCC3)CC2)c(Cl)c1 [Example 252, formate] : 60
COc1ccc(-c2cnc(C(=O)Nc3ccc(C(=O)N4CCC(C(=O)N5CC(CCN)C5)CC4)c(Cl)c3)n2C)c(F)c1F [Example 40, formate] : 70
Cc1cc(NC(=O)c2ncc(-c3ccc(OCC#N)c(F)c3F)n2C)ccc1C(=O)N1CCN(C(=O)[C@@H]2C[C@](C)(O)CN2)CC1 [Example 225, formate] : 160
Cn1c(-c2ccc(OC(F)F)c(F)c2F)cnc1C(=O)Nc1ccc(C(=O)N2CCN(C(=O)C3CCN(C(=O)C4CNC4)CC3)CC2)c(Cl)c1 [Example 174, formate] : 70

a. COc1ccc(-c2cnc(C(=O)Nc3ccc(C(=O)N4CC(C(=O)N5C[C@H]6CNC[C@H]6C5)C4)c(Cl)c3)n2C)c(F)c1F [Example 70, formate]
b. CN(C)CCN1CCN(C(=O)c2ccc(NC(=O)c3ncc(-c4ccc(Oc5ccncc5)c(F)c4F)n3C)cc2Cl)CC1 [Example 272, trifluoroacetate]
c. COc1ccc(-c2cnc(C(=O)Nc3ccc(C(=O)N4CCC(C(=O)NCCCC(=O)O)CC4)c(Cl)c3)n2C)c(F)c1F [Example 68]
d. COc1ccc(-c2cnc(C(=O)Nc3ccc(C(=O)N4CCC(C(=O)NCC5(O)CNC5)CC4)c(Cl)c3)n2C)c(F)c1F [Example 57, formate]
e. COc1ccc(-c2cnc(C(=O)Nc3ccc(C(=O)N4CCC(C(=O)NCCC(=O)O)CC4)c(Cl)c3)n2C)c(F)c1F [Example 67]
Hi! Can you put these in order of IC90, lowest number first? Response field: labels, in requested order. d, a, b, c, e
(d: 60 nM, a: 140 nM, b: 880 nM, c: 2100 nM, e: 3300 nM)

###

Test system: Acinetobacter baumannii ATCC17961
Assay: Antimicrobial susceptibility testing: 90% growth inhibitory concentration (IC90) determination, Iso-Sensitest broth
Type: cell-based
Settings: Acinetobacter baumannii, ATCC17961, 90% growth inhibitory concentration, Acinetobacter baumannii ATCC17961, Iso-Sensitest broth; read-out: ATCC 17961 IC90
Description: The in vitro antimicrobial activity of the compounds was determined according to the following procedure: The assay used a 10-points Iso-Sensitest broth medium to measure quantitatively the in vitro activity of the compounds against Acinetobacter baumannii ATCC17978 or ATCC17961. […] Bacterial cell growth was determined with the measurement of optical density at k=600 nm each 20 minutes over a time course of 16 h. […]
Counter-ions that a name gives are not always drawn.
ENDPOINT: IC90 (nM)

Cn1c(-c2ccc(OCC#N)c(F)c2F)cnc1C(=O)Nc1ccc(C(=O)N2CCN(C(=O)[C@@H]3NCC[C@@H]3O)CC2)c(Cl)c1 [Example 210, formate] : 60

I. Cn1c(-c2ccc(OCC#N)c(F)c2F)cnc1C(=O)Nc1ccc(C(=O)N2CCNCC2)c(Cl)c1
II. Cn1c(-c2ccc(OCF)c(F)c2Cl)cnc1C(=O)Nc1ccc(C(=O)N2CCC(C(=O)N[C@@H]3CNC[C@H]3O)CC2)c(Cl)c1 [Example 53, formate]
III. COc1ccc(-c2cnc(C(=O)Nc3ccc(C(=O)N4CCN(C(=O)CC5NC(=O)NC5=O)CC4)c(Cl)c3)n2C)c(F)c1F (stereo not drawn)
Put the entries in order of IC90, starting with the largest number. # answer = labels listed in requested order III, I, II
(III: 270 nM, I: 130 nM, II: 50 nM)

I. COc1ccc(-c2cnc(C(=O)Nc3ccc(C(=O)N4CCC(C(=O)N5CCN[C@@H](CO)C5)CC4)c(Cl)c3)n2C)c(F)c1F
II. Cn1c(-c2ccc(OCC#N)c(F)c2F)cnc1C(=O)Nc1ccc(C(=O)N2CCN(CCN)CC2)c(Cl)c1 [Example 19, trifluoroacetate]
Between I and II , which one shows the larger IC90 value? API: response body contains the label of the selected item. I
(I: 170 nM, II: 60 nM)

###

test system: Acinetobacter baumannii ATCC17961; test: Antimicrobial susceptibility testing: 90% growth inhibitory concentration (IC90) determination, Iso-Sensitest broth; type: cell-based; conditions: Acinetobacter baumannii, ATCC17961, 90% growth inhibitory concentration, Acinetobacter baumannii ATCC17961, Iso-Sensitest broth; read-out: ATCC 17961 IC90
Structures can show the parent of a compound that is named as a salt.
ENDPOINT: IC90 (nM)

COc1ccc(-c2cnc(C(=O)Nc3ccc(C(=O)N4CCC(C(=O)NCC5CNC5)CC4)c(Cl)c3)n2C)c(F)c1F : 70
COc1ccc(-c2cnc(C(=O)Nc3ccc(C(=O)N4CCN(C(=O)[C@@H]5CCNC[C@@H]5O)CC4)c(C)c3)n2C)c(F)c1F [Example 234, formate] : 180
COc1ccc(-c2cnc(C(=O)Nc3ccc(C(=O)N4CCN(C(=O)C5CC6(CNC6)C5)CC4)c(C)c3)n2C)c(Cl)c1F : 120

A. COc1ccc(-c2cnc(C(=O)Nc3ccc(C(=O)N4CCN(C(=O)N[C@H]5CNC[C@@H]5O)CC4)c(Cl)c3)n2C)c(F)c1F
B. COc1ccc(-c2cnc(C(=O)Nc3ccc(C(=O)N4CCC(N)CC4)c(Cl)c3)n2C)c(F)c1F [Example 13, formate]
C. COc1ccc(-c2cnc(C(=O)Nc3ccc(C(=O)N4CCN(C(=O)C5CCNCC5)CC4)c(Cl)c3)n2C)c(F)c1OC [Example 257, formate]
Arrange these 3 compounds in increasing order of IC90. To answer, arrange all of the labels according to the requested order. A, B, C
(A: 40 nM, B: 110 nM, C: 230 nM)

A. COc1ccc(-c2cnc(C(=O)Nc3ccc(C(=O)N4CCC(C(=O)NC5CNC5)CC4)c(Cl)c3)n2C)c(F)c1F
B. Cn1c(-c2ccc(OC(F)F)c(F)c2)cnc1C(=O)Nc1ccc(C(=O)N2CCN(C(=O)C[C@@H]3CCCN3)CC2)c(Cl)c1 [Example 181, formate]
Given the two records A and B , choose the one whose IC90 value is lower. Give the label of your selection. A
(A: 80 nM, B: 130 nM)

1. COc1ccc(-c2cnc(C(=O)Nc3ccc(C(=O)N4CCN(C(=O)[C@H]5CCNC5)CC4)c(Cl)c3)n2C)c(F)c1F [Example 139, formate]
2. COc1ccc(-c2cnc(C(=O)Nc3ccc(C(=O)N4CCN(C(=O)[C@@H]5C[C@](C)(O)CN5)CC4)c(Cl)c3)n2C)c(F)c1F [Example 232, formate]
Return label of the item with the larger IC90. Candidates: 1 , 2 . Identify your selection by its label. 2
(2: 90 nM, 1: 40 nM)

###

system: Acinetobacter baumannii ATCC17961; experiment: Antimicrobial susceptibility testing: 90% growth inhibitory concentration (IC90) determination, Iso-Sensitest broth; assay type: cell-based; settings: Acinetobacter baumannii, ATCC17961, read-out: ATCC 17961 IC90
Structures can show the parent of a compound that is named as a salt.
ENDPOINT: IC90 (nM)
Your answer is read as nM, so omit the unit and give the number.

These solved cases illustrate the format of a correct answer.
Cn1c(-c2ccc(OCC#N)c(F)c2F)cnc1C(=O)Nc1ccc(C(=O)N2CCN(CCNCC(N)=O)CC2)c(Cl)c1 : 140
Cn1c(-c2ccc(OCC#N)c(F)c2F)cnc1C(=O)Nc1ccc(C(=O)N2CCC(C(=O)N3CCN[C@H](CO)C3)CC2)c(Cl)c1 : 100

Fill blank: measured IC90 of the compound COc1ccc(-c2cnc(C(=O)Nc3ccc(C(=O)N4CCC(NC(=O)CC5CCNC5)CC4)c(Cl)c3)n2C)c(F)c1F (stereo not drawn) [Example 11, formate] is ____. 70

###

tested on: Acinetobacter baumannii ATCC17961; assay: Antimicrobial susceptibility testing: 90% growth inhibitory concentration (IC90) determination, Iso-Sensitest broth; type: cell-based; details: Acinetobacter baumannii, ATCC17961, 90% growth inhibitory concentration, Acinetobacter baumannii ATCC17961, Iso-Sensitest broth; read-out: ATCC 17961 IC90
Counter-ions that a name gives are not always drawn.
ENDPOINT: IC90 (nM)

CCOc1ccc(-c2cnc(C(=O)Nc3ccc(C(=O)N4CCN(C(=O)CC5(O)CCNCC5)CC4)c(Cl)c3)n2C)c(F)c1F [Example 183, formate] : 80

a. C#CCNCCCNC(=O)C1CCN(C(=O)c2ccc(NC(=O)c3ncc(-c4ccc(OC)c(F)c4F)n3C)cc2CC)CC1 [Example 286]
b. COc1ccc(-c2cnc(C(=O)Nc3ccc(C(=O)N4CCC(C(=O)NCC5CCN5)CC4)c(Cl)c3)n2C)c(F)c1F (stereo not drawn) [Example 63]
Please compare: a and b . Report which one has the smaller IC90 value. // return label of chosen record b
